Values were extracted from patent US20230365592A1.

# ASSAYED_TARGET: human PAH with the R408W mutation (Homo sapiens, UniProt P00439, R408W)
# Construct: expressed in transfected cells
# Sequence (P00439 1-452 R408W): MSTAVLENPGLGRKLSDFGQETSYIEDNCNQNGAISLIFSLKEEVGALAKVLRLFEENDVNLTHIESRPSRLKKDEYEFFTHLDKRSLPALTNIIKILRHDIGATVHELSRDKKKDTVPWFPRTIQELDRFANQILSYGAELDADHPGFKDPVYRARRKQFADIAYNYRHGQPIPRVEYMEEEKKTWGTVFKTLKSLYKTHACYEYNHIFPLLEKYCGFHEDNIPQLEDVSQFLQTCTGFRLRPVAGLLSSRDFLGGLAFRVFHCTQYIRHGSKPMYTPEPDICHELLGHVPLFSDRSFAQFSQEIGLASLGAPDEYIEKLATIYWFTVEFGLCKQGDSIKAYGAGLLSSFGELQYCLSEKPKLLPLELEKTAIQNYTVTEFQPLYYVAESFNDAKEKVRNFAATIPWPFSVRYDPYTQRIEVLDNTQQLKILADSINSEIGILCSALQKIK
# PROTOCOL_NOTES: Cell Based Phenylalanine Flux Assay;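 further: after compound treatment, cells received sepiapterin plus isotope-labelled Phenylalanine for 4 hours, then labelled Tyrosine in the medium was quantified, 10-point 2-fold dilution series run in duplicate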
# TEST_SETTINGS: A375 cells expressing human R408W PAH; 24 hrs compound incubation; 13C-Tyrosine by LC-MS; average where tested multiple times; read-out: AC50
ATTRIBUTE_MEASURED: AC50

Look over these answered cases.
1) O=C(c1cnn2cc(-c3ccccn3)ccc12)N1CCc2[nH]cnc2[C@@H]1c1cc2c(C(F)(F)F)cccn2n1 : 1000 to 5000 nM
2) Cc1cccn2nc([C@H]3c4nc[nH]c4CCN3c3nnc(C(C)(C)C)o3)cc12 : > 5000 nM
3) Cc1cccc(-c2nnc(C(=O)N3CCc4[nH]cnc4[C@@H]3c3cc4cccc(C(F)F)n4n3)o2)n1 : > 5000 nM
4) c1cnc(N2CCc3[nH]cnc3[C@@H]2c2cc3ccccn3n2)nc1 : 1000 to 5000 nM
5) COc1ccc(-c2nnc(C(=O)N3CCc4[nH]cnc4[C@H]3c3cc4cccc(F)n4n3)o2)nc1 : 500 to 1000 nM
6) Cn1cc(-c2nnc(C(=O)N3CCc4[nH]cnc4[C@@H]3c3cc4ccc(F)cn4n3)o2)cn1 : > 5000 nM
7) Cc1ncccc1-c1nnc(C(=O)N2CCc3[nH]cnc3[C@H]2c2cc3c(C)cccn3n2)o1 : < 500 nM
8) Cc1c(-c2nnc(C(=O)N3CCc4[nH]cnc4[C@H]3c3cc4c(F)cccn4n3)o2)cnn1C : < 500 nM
9) Cc1cccc(-c2nnc(C(=O)N3CCc4[nH]cnc4[C@H]3c3cc4cccc(F)n4n3)o2)n1 : < 500 nM
10) O=C(c1nnc(-c2ncccn2)o1)N1CCc2[nH]cnc2[C@H]1c1cc2cccc(Cl)n2n1 : < 500 nM

INPUT: Recall and state the measured AC50 for Cc1ncccc1-c1nnc(C(=O)N2CCc3[nH]cnc3[C@H]2c2cc3c(C(F)(F)F)cccn3n2)o1 .
OUTPUT: < 500 nM

INPUT: Recall and state the measured AC50 for Cn1nccc1-c1nnc(C(=O)N2CCc3[nH]cnc3[C@H]2c2cc3c(C(F)F)cccn3n2)o1 .
OUTPUT: < 500 nM
